Data provenance is PubChem BioAssay (NCI).

# Tested on: MDA-MB-435 melanoma
# measurement-protocol: NCI-60 one-dose screen, 48 h (100 = growth as untreated, 0 = no growth, -100 = all killed)
# conditions-used: 10 µM unless noted
Compounds without any hit were thinned out: in the full panel of roughly 83,000, 20% have a hit.
measure: growth (%)
Report only the number, with the unit % understood.

Give growth; test system MDA-MB-435 melanoma; compound Cc1ccc(C(=O)CSc2nc(-c3ccc(Br)cc3)c(C#N)c(=O)[nH]2)cc1
93.2

Find growth for O=c1ssc(Cl)c1-c1ccccc1 on MDA-MB-435 melanoma and write it down.
98.4

Look up and report measured growth (MDA-MB-435 melanoma) for the following compound: CCc1ccccc1-n1c(-c2ccc(Cl)cc2)cc(-c2ccc(OC)cc2)c(C#N)c1=O
89

Report its growth with MDA-MB-435 melanoma as the test system: O=Cc1ccc(O)c2ncccc12
60.3

State growth (MDA-MB-435 melanoma) of O=c1c2cc(F)ccc2sc2c(NCCN3CCCCC3)nc3ccccc3c12 .
29.5

Report its growth with MDA-MB-435 melanoma as the test system: COc1ccc(-c2nc(SCCC(C)C)nc(N/N=C\c3cccc([N+](=O)[O-])c3)c2C#N)cc1
56.3

Provide the reported growth (system: MDA-MB-435 melanoma) for CC(=O)[C@@H]1CC[C@]2(COS(=O)(=O)c3ccc(C)cc3)CC[C@]3(C)[C@H](CC[C@@H]4[C@@]5(C)CCCNC(C)(C)[C@@H]5CC[C@]43C)[C@@H]12
52.2

Name the value of growth reported for COc1cc(C2CC(c3cc(OC)c(OCCCOc4ccc(-n5c(/C=C/c6ccccc6)nc6ccccc6c5=O)cc4)c(OC)c3)=NO2)cc(OC)c1OC (centres undefined) when tested on MDA-MB-435 melanoma.
110

// next item, growth requested
Tell me growth of CC(C)Sc1nc(NNC(N)=S)c(C#N)c(-c2ccc(F)cc2)n1 when tested on MDA-MB-435 melanoma.
108

###

List of growth values.
# System: KM12 colon
# measurement-protocol: NCI-60 one-dose screen, 48 h (100 = growth as untreated, 0 = no growth, -100 = all killed)
# conditions-used: 10 µM unless noted
The panel holds about 83,000 compounds, 20% with a hit somewhere; the sample as a whole holds those more often.
Answer with a number only, understood to be in %.

Known results for compounds:
Identify growth associated with the compound O=c1[nH]ccc2nc(N3CCC(O)CC3)nc(Nc3ccc(N4CCOCC4)cc3)c12
8.57

Hello, please tell me recorded growth for this one: N#CC1=C(/N=C/c2ccccc2)Oc2c(ccc3ccccc23)C1c1ccccc1 (centres undefined)
19.2

Report measured growth; entry is O=c1c2c3c(sc2n2c(-c4cc(-c5ccccc5)nn4-c4ccccc4)nnc2n1Cc1ccccc1)CCCC3
84.1

Continuing:
Using known records, supply growth for O=C1Nc2ccccc2/C1=C/c1cn(C(=O)c2ccc(Cl)cc2)c2ccccc12
40.9

Specify reported growth for the compound shown: COc1cc(/C=C/C(=O)c2ccc(Nc3nc(Nc4ccc(F)cc4)nc(Nc4ccc(Cl)cc4)n3)cc2)cc(OC)c1OC
56

Item CN(C)c1ccc(-c2cc(-c3ccc(Nc4nc(Nc5ccc(Cl)cc5)nc(Nc5ccc(Cl)cc5)n4)cc3)no2)cc1 : provide growth
28.5

Specify growth for O=[N+]([O-])c1ccc(-c2cc(-c3ccc(Nc4nc(Nc5ccc(Cl)cc5)nc(Nc5ccc(Cl)cc5)n4)cc3)no2)cc1 and stop.
105

Give me measured growth, please, for this compound: N#CC1=C(NC=O)Oc2c(ccc3ccccc23)C1c1ccccc1 (centres undefined)
30.7

For the compound Cc1ccc(CCC(=O)Nc2ncc(Cc3cc(Cl)ccc3Cl)s2)o1 , give its measured growth value.
14.9

###

# Tested on: MALME-3M melanoma
# measurement-protocol: NCI-60 one-dose screen, 48 h
# conditions-used: 10 µM unless noted
Compounds without any hit were thinned out: in the full panel of roughly 83,000, 20% have a hit. The source made the active and inactive calls. How the source made its calls: active means growth percent below 10; inactive means the rest.
Valid outcomes are listed here; reply with one: active, inactive

Consider the following illustrative entries.
Give the logged outcome of this assay for the following compound: O=C(/C=C/c1ccc(Cl)nc1)c1ccc(Cl)cc1Cl
inactive

What did the test return for COc1ccc(Cl)cc1NC(=O)C(Br)C(Br)C(=O)O (centres undefined) ?
inactive

Record lookup: outcome of this test for Cc1c(C(=O)N[C@@H](Cc2ccccc2)C(=O)C(=O)NCCc2ccccc2)[nH]c2ccccc2c1=O ?
inactive

Recorded test outcome, item O=C(Nc1ccccc1-c1nc2ccccc2c(=O)[nH]1)c1cc2ccccc2[nH]1
inactive

Others:
Given CCN(CC)CCN1CC(O)=C(c2nc(-c3ccc(Cl)cc3)cs2)C1=N , state the outcome it received in this test.
active

Fill in: this test's call for COc1ccc2c(c1)C(=O)/C(=C/c1cccc(OCC(=O)Nc3nc(C)c(C)s3)c1)O2 is ___
active

Which outcome did this test record for the compound N=C(N)c1ccc(-c2ccc(-c3cncc4ccccc34)s2)s1 ?
active

# outcome recorded in this test, key = N#Cc1c(N)nc(NCCO)nc1-c1ccc(F)cc1
inactive

Field: outcome | Entry: COC(=O)[C@]12CC[C@@H](C)[C@H](C)[C@@H]1C1=CC[C@@H]3[C@@]4(C)C(C=O)=C[C@@](C)(COC(=O)/C=C/c5ccccc5)[C@@H]4[C@H](O)C[C@@]3(C)[C@]1(C)CC2
active

###

# System: HS 578T breast
# measurement-protocol: NCI-60 one-dose screen, 48 h (100 = growth as untreated, 0 = no growth, -100 = all killed)
# conditions-used: 10 µM unless noted
# Procedure: Growth inhibition of the HS 578T human tumor cell line is measured as a screen for anti-cancer activity. Cells are grown in 96 well plates and exposed to the test compound for 48 hours. Compounds are tested at a single concentration, which is 10^-5 M for most compounds. The reported endpoint is percent growth (GI% or GIPRCNT), where numbers from 0 - 100% represent growth inhibition, and numbers from -100% - 0 represent cell death. For example, a value of 40 represents 60% growth inhibition. […]
About 83,000 compounds went through this panel and 20% of them were active in at least one assay; those are over-represented in the sample as a whole.
The compounds listed here are annotated with their growth.
Use % as the unit, but write only the number.

Consider the reported growth for these compounds:
Output growth of COc1cc(C(=O)c2cc(C)c3[nH]c4ccc(Cl)cc4c3c2C)cc(OC)c1OC
43.5

For CCN(CC)c1nc(SCC(=O)Nc2nc3ccc(C)cc3s2)nc(-c2ccccc2)c1C#N , write its growth.
83.4

Please list growth recorded for the compound COc1cccc(-c2nn(-c3ccccc3)cc2-c2ccnc(NCCNC(=O)c3ccccc3)c2)c1
68.5

More entries:
Identify measured growth associated with Cn1c(I)c(C#C[Si](C)(C)C)c(=O)n(C(=O)c2ccccc2)c1=O
41

Indicate the recorded growth value for this compound: COc1ccc(CN2C(=O)C(Cl)=C(Nc3cccc(C(F)(F)F)c3)C2=O)cc1
57

Report growth for C=CCn1c(C)nc2cc(Nc3nc(Cl)nc4ccccc34)ccc21
92.7

Input CC(C)=C[C@@H]1c2c(c3ccccc3n(C)c2=O)O[C@H]2c3c(c4ccccc4n(C)c3=O)OC(C)(C)[C@@H]12 , output reported growth.
93.2

Quickly give me recorded growth for O=C(c1ccccc1)c1c(/C=C/c2ccccc2)nc2ccccc2c1/C=C/c1ccc(Br)cc1
91.3

Specify measured growth for N#CC1=C(/N=C/c2ccccc2)Oc2c(ccc3ccccc23)C1c1ccccc1 (centres undefined) .
18.5

###

# Test system: PC-3 prostate
# measurement-protocol: NCI-60 one-dose screen, 48 h
# conditions-used: 10 µM unless noted
# Procedure: Growth inhibition of the PC-3 human tumor cell line is measured as a screen for anti-cancer activity. Cells are grown in 96 well plates and exposed to the test compound for 48 hours. Compounds are tested at a single concentration, which is 10^-5 M for most compounds. The reported endpoint is percent growth (GI% or GIPRCNT), where numbers from 0 - 100% represent growth inhibition, and numbers from -100% - 0 represent cell death. For example, a value of 40 represents 60% growth inhibition. […]
Compounds without any hit were thinned out: in the full panel of roughly 83,000, 20% have a hit. The source made the active and inactive calls. How the source made its calls: active means growth percent below 10; inactive means the rest.
Reply using exactly one outcome from active, inactive

How was S=C(Cc1ccc2c(c1)CCCC2)N1CCOCC1 classified in this test?
inactive

Fill in: this test's call for CC1=C(SCCC(=O)OC(C[Se]C2=C(C)C(=O)c3ccccc3C2=O)C(=O)NCCCCCC(=O)OCc2ccccc2)C(=O)c2ccccc2C1=O (stereo unspecified) is ___
inactive

For the next question, use this compound.
Write down the call the test reported for this compound. Item: Cc1c(C(=O)OC(=NC2CCCCC2)NC2CCCCC2)sc2c1c(=O)nc1c(C#N)n[nH]n12
inactive

###

# System: BT-549 breast
# measurement-protocol: NCI-60 one-dose screen, 48 h (100 = growth as untreated, 0 = no growth, -100 = all killed)
# conditions-used: 10 µM unless noted
The panel holds about 83,000 compounds, 20% with a hit somewhere; the sample as a whole holds those more often.
measure: growth (%)
State just the number; it will be interpreted in %.

Here's what some known entries look like.
State its growth: O=C(c1ccccc1)c1c(/C=C/c2ccc(Cl)cc2)nc2ccccc2c1/C=C/c1cccs1
99.3

Retrieve growth measured for CCOc1ccccc1-c1cc(-c2cccs2)c(C#N)c(=O)[nH]1 and print it.
85.6

Please report the measured growth for COc1ccc(/C=N/C2=C(C#N)C(c3ccc(OC)cc3)c3ccc4ccccc4c3O2)cc1 (stereo not drawn)
84

Quick one: give measured growth for Clc1cccc(Cl)c1/C=C/c1cc(/C=C/c2c(Cl)cccc2Cl)[nH]n1
30.7

For the molecule Cc1cc(NCCCCNc2ccnc3cc(Cl)ccc23)nc(Nc2ccc(C(=O)N3CCCCC3)cc2)n1 , give its measured growth value.
92.9

***
Tell me its growth given Cc1ccc(-n2nc3c(c(C#N)c2=O)CC(c2ccccc2Cl)C([N+](=O)[O-])=C3O)cc1 (stereo not drawn) as the entry.
103

Provide only the value of recorded growth for COc1cccc(-c2nc3sccn3c2-c2ccnc(NCCNS(=O)(=O)c3cccc(F)c3)c2)c1
-6.02

Output measured growth for this item: CCOC(=O)c1csc(NC(=O)COc2cccc(/C=C3\Oc4cc(OC)ccc4C3=O)c2)n1
84.7

Retrieve growth measured for COc1ccc(OC)c2c1[nH]c(=O)c1c3ncccc3cn21 and print it.
86.6

Name the recorded growth of the item COc1ccc(-c2nc3c(c(=O)n2C(C)=O)C(c2ccc(Cl)cc2)c2sc4c(Cl)cccc4c2O3)cc1 (stereo not drawn) in your answer.
-26.9

Indicate the recorded growth value for this molecule: Cc1cc(NCc2cc(Nc3ccnc4cc(Cl)ccc34)ccc2F)nc(N2CCOCC2)n1
75.3

Dear colleague, please send me the reported growth for CC(=O)N1C(=S)NC(=O)C1Cn1c(-c2ccccc2)nc2ccccc21 (stereo not drawn) when you can.
109

Quickly give me recorded growth for O=C(O)C1CCC(=O)N1C(=O)OCc1ccccc1 (stereo not drawn)
112

Specify reported growth for the molecule shown: COc1cc(C(=O)c2cc(C)c3[nH]c4ccc(Cl)cc4c3c2C)cc(OC)c1OC
14.4

Return growth (reported value) for this molecule: CC(C)(C)c1ccc(/C=C/C(=O)Nc2ccc(O)cc2)cc1
66.6

// Input: O=c1ccn2nc3ccccc3c2[nH]1 . Output its growth only.
98.2

Specify growth for COC(=O)CCC1=C(C)C2=NC1=CC1=NC(=CC3=NC(=Cc4[nH]c(/c(=C(/C)O)c4C)=C2)C(C(C)=O)=C3C)C(C)=C1CCC(=O)OC and stop.
100
